tgt: T1, Z-Phe-Arg-MCA
T1 chain: FR
measured-parameter: kcat/Km (mM^-1 · min^-1)

>>> val("Bovine EP serine protease (Novagen) (protein) IVGGSDSREGAWPWVVALYFDDQQVCGASLVSRDWLVSAAHCVYGRNMEPSKWKAVLGLHMASNLTSPQIETRLIDQIVINPHYNKRRKNNDIAMMHLEMKVNYTDYIQPICLPEENQVFPPGRICSIAGWGALIYQGSTADVLQEADVPLLSNEKCQQQMPEYNITENMVCAGYEAGGVDSCQGDSGGPLMCQENNRWLLAGVTSFGYQCALPNRPGVYARVPRFTEWIQSFLH")
1400
>>> val("Medaka EP-1 serine protease domain mutant T105E (protein) VVGGVNAEKGAWPWMVSLHWRGRHGCGASLIGRDWLLTAAHCVYGKNTHLQYWSAVLGLHAQSSMNSQEVQIRQVDRIIINKNYNRREKEADIAMMHLQQPVNFTEWVLPVCLASEDQHFPAGRRCFIAGWGRDAEGGSLPDILQEAEVPLVDQDECQRLLPEYTFTSSMLCAGYPEGGVDSCQGDSGGPLMCLEDARWTLIGVTSFGVGCGRPERPGAYARVSAFTSWIAETRRSSFSDLD")
20
>>> val("Medaka EP-1 serine protease domain mutant K63R (protein) VVGGVNAEKGAWPWMVSLHWRGRHGCGASLIGRDWLLTAAHCVYGRNTHLQYWSAVLGLHAQSSMNSQEVQIRQVDRIIINKNYNRRTKEADIAMMHLQQPVNFTEWVLPVCLASEDQHFPAGRRCFIAGWGRDAEGGSLPDILQEAEVPLVDQDECQRLLPEYTFTSSMLCAGYPEGGVDSCQGDSGGPLMCLEDARWTLIGVTSFGVGCGRPERPGAYARVSAFTSWIAETRRSSFSDLD")
14

Next:
Suppose we examine the protein Medaka EP-1 serine protease domain (wild-type) (protein) VVGGVNAEKGAWPWMVSLHWRGRHGCGASLIGRDWLLTAAHCVYGKNTHLQYWSAVLGLHAQSSMNSQEVQIRQVDRIIINKNYNRRTKEADIAMMHLQQPVNFTEWVLPVCLASEDQHFPAGRRCFIAGWGRDAEGGSLPDILQEAEVPLVDQDECQRLLPEYTFTSSMLCAGYPEGGVDSCQGDSGGPLMCLEDARWTLIGVTSFGVGCGRPERPGAYARVSAFTSWIAETRRSSFSDLD ; what kcat/Km (mM^-1 · min^-1) value has been reported?
29

Provenance of the data: patent US20080213836
